target: type V adenylyl cyclase (Homo sapiens)
Sequence (O95622 whole entry): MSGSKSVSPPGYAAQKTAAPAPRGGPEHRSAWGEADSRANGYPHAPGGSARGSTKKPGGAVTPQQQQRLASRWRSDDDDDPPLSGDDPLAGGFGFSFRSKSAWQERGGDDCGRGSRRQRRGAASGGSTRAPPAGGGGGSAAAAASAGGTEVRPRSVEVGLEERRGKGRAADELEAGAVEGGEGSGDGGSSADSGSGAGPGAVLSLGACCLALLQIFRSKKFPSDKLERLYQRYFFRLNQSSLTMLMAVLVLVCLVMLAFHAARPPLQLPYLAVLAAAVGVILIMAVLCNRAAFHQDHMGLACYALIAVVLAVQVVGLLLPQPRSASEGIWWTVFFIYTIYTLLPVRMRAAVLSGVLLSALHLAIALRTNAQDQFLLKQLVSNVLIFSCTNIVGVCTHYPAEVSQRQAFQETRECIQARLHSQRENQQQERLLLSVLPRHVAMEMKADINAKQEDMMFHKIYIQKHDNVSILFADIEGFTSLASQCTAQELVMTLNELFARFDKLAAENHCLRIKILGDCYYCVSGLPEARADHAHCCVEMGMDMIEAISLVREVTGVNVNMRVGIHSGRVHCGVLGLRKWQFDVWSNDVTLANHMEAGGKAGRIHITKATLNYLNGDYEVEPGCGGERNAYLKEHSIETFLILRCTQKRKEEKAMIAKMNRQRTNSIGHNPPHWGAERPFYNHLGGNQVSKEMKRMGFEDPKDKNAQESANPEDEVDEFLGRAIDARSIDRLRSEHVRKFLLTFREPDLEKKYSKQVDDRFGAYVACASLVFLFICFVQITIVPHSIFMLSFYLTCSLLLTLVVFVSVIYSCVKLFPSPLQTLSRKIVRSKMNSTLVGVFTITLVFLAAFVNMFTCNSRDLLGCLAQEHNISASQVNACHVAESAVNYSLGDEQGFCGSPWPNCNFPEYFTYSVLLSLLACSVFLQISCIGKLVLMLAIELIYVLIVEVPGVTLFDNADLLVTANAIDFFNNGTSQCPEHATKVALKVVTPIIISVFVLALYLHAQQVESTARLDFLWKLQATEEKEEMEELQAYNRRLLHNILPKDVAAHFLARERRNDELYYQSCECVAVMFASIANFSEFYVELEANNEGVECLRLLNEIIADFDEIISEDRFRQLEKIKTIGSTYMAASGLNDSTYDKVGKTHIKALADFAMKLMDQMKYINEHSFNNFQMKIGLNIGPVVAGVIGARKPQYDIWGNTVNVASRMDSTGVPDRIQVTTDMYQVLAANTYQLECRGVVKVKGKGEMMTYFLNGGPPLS
Recorded IC50, one value per entry.
Measurement Label: IC50

>>> measured("Nc1ncnc2c1ncn2[C@@H]1C[C@H](CO)[C@@H](C(=O)O)C1 [Compound 10g]")
"> 100 µM"
>>> measured("Nc1ncnc2c1nc(O)n2[C@@H]1CC[C@@H](C(=O)NO)C1 [Compound 10r]")
"> 300 µM"
>>> measured("Nc1ncnc2c1nc(N)n2[C@@H]1CC[C@@H](C(=O)NO)C1 [Compound 10q]")
"> 300 µM"
>>> measured("Nc1nccc2c1ccn2[C@@H]1CC[C@@H](C(=O)O)C1 [Compound 10e]")
"> 10 µM"
>>> measured("Nc1nc(O)nc2c1ncn2[C@@H]1CC[C@@H](C(=O)NO)C1 [Compound 10n]")
"> 300 µM"
